Tested on: Enterococcus faecalis
Experiment: Antibacterial activity against Enterococcus faecalis assessed as inhibition of bacterial growth measured after 24 hrs by CLSI based broth microdilution method
Format: functional
MEASURED ATTRIBUTE: log10 MIC (log10 of the value in µg/mL)

{"COMPOUND": "CCCCOP(=O)(OCCCC)C(Nc1ccc(S(N)(=O)=O)cc1)c1cc(O)c2c(c1)C(=O)c1cccc(O)c1C2=O (stereo not given)", "log10 MIC": 2.11}
{"COMPOUND": "Cc1cc(NS(=O)(=O)c2ccc(NC(c3cc(O)c4c(c3)C(=O)c3cccc(O)c3C4=O)P(=O)(Oc3ccccc3)Oc3ccccc3)cc2)no1 (stereo not given)", "log10 MIC": 1.81}
{"COMPOUND": "CCOP(=O)(OCC)C(Nc1ccc(S(=O)(=O)Nc2cc(C)on2)cc1)c1cc(O)c2c(c1)C(=O)c1cccc(O)c1C2=O (stereo not given)", "log10 MIC": 2.41}
{"COMPOUND": "COP(=O)(OC)C(Nc1ccc(S(=O)(=O)Nc2onc(C)c2C)cc1)c1cc(O)c2c(c1)C(=O)c1cccc(O)c1C2=O (stereo not given)", "log10 MIC": 1.81}
{"COMPOUND": "Cc1cc(NS(=O)(=O)c2ccc(N)cc2)no1", "log10 MIC": 1.20}
{"COMPOUND": "Nc1ccc(S(=O)(=O)Nc2nccs2)cc1", "log10 MIC": 1.81}
{"COMPOUND": "CCOP(=O)(OCC)C(Nc1ccc(S(=O)(=O)Nc2ncccn2)cc1)c1cc(O)c2c(c1)C(=O)c1cccc(O)c1C2=O (stereo not given)", "log10 MIC": -0.60}
{"COMPOUND": "Cc1noc(NS(=O)(=O)c2ccc(NC(c3cc(O)c4c(c3)C(=O)c3cccc(O)c3C4=O)P(=O)(OC(C)C)OC(C)C)cc2)c1C (stereo not given)", "log10 MIC": 1.81}
{"COMPOUND": "COP(=O)(OC)C(Nc1ccc(S(=O)(=O)Nc2nccs2)cc1)c1cc(O)c2c(c1)C(=O)c1cccc(O)c1C2=O (stereo not given)", "log10 MIC": 1.51}
{"COMPOUND": "O=C1c2cccc(O)c2C(=O)c2c(O)cc(CO)cc21", "log10 MIC": 1.51}
{"COMPOUND": "CCOP(=O)(OCC)C(Nc1ccc(S(=O)(=O)Nc2nccs2)cc1)c1cc(O)c2c(c1)C(=O)c1cccc(O)c1C2=O (stereo not given)", "log10 MIC": -0.30}
{"COMPOUND": "Nc1ccc(S(=O)(=O)Nc2ncccn2)cc1", "log10 MIC": 1.20}
{"COMPOUND": "CCn1cc(C(=O)O)c(=O)c2cc(F)c(N3CCNCC3)cc21", "log10 MIC": 0.60}
{"COMPOUND": "COP(=O)(OC)C(Nc1ccc(S(=O)(=O)Nc2cc(C)on2)cc1)c1cc(O)c2c(c1)C(=O)c1cccc(O)c1C2=O (stereo not given)", "log10 MIC": 1.81}
{"COMPOUND": "Nc1ccc(S(N)(=O)=O)cc1 [SULFANILAMIDE]", "log10 MIC": 2.11}
{"COMPOUND": "NS(=O)(=O)c1ccc(NC(c2cc(O)c3c(c2)C(=O)c2cccc(O)c2C3=O)P(=O)(Oc2ccccc2)Oc2ccccc2)cc1 (stereo not given)", "log10 MIC": 1.51}
{"COMPOUND": "Cc1cc(NS(=O)(=O)c2ccc(NC(c3cc(O)c4c(c3)C(=O)c3cccc(O)c3C4=O)P(=O)(OC(C)C)OC(C)C)cc2)no1 (stereo not given)", "log10 MIC": 1.51}
{"COMPOUND": "O=C1c2cccc(O)c2C(=O)c2c(O)cc(C(Nc3ccc(S(=O)(=O)Nc4nccs4)cc3)P(=O)(Oc3ccccc3)Oc3ccccc3)cc21 (stereo not given)", "log10 MIC": 1.81}
{"COMPOUND": "O=C1c2cccc(O)c2C(=O)c2c(O)cc(C(Nc3ccc(S(=O)(=O)Nc4ncccn4)cc3)P(=O)(Oc3ccccc3)Oc3ccccc3)cc21 (stereo not given)", "log10 MIC": 1.81}
{"COMPOUND": "CCCCOP(=O)(OCCCC)C(Nc1ccc(S(=O)(=O)Nc2onc(C)c2C)cc1)c1cc(O)c2c(c1)C(=O)c1cccc(O)c1C2=O (stereo not given)", "log10 MIC": 2.11}
